Kindly state apparent KD of MS2 coat protein for each of the entries shown.
System: MS2 coat protein
Experiment: apparent KD of MS2 coat protein; designed switch direction (-1 OFF switch, 1 ON switch): -1; higher = weaker reporter binding
Settings: input ligand: FMN 200 uM
Numbers only, in µM.

Examples with answers:
GGAUCUACUGAGGAUAUUAUAUCACCCGACUGAUAAGAAGGCAGUACAUGAGGAUCACCCAUGUGGGUAGCCAC [Polaris7] (Eterna round: R97, puzzle: Exclusion 6) | 0.0796
AGCGAAUAGCUAGGAUAUGAGAAUAGAUAGAGCUCAGAAGGAGCACAUGAGGAUCACCCAUGUAAAGUCUUGAGGCUGCGUGGU [Prohibition 16 - Jieux - Exclusion NG 1] (Eterna round: R96, puzzle: Exclusion NG 1) | 0.0795
GGAUCGAAUGUGAGGAUAUGCUGGUCCUUGGAUCAGCAGAAGGCACAUGAGGAUCACCCAUGUGACCAAGAUCC [Eli bmx4 4.73] (Eterna round: R97, puzzle: Brourd's mod of Exclusion 4) | 0.45
UAAUGUAUAUAGGAUAUCUAGCUGGAAACAGCUAGAGAAGGAUGUACAUGAGGAUCACCCAUGUAAAUCUCAAU [Ex6/12-B1] (Eterna round: R97, puzzle: Exclusion 6) | 0.0274

We next turn to a different sequence, shown below.
Looking up UCGUUCCGUGUAGGAUAUUGGCCUUCCUUGGGCCGAGAAGGACAUGAGGAUCACCCAUGUAUGUUAUUAUCGCGCGUGGCGCAU [Design 87] (Eterna round: R96, puzzle: Exclusion NG 1) , I see its apparent KD of MS2 coat protein listed as 0.0971
